- Tested on: DR5 ECD
- protocol.summary: Peptide array binding of Fc-tagged DR5 ectodomain (MPZ and RHO sequences; amino acid enrichment)
- Design: species or system human
- experimental.conditions: rhodopsin EL1-EL3 peptide array, normalized from corrected rawintden - min
Measured normalized (binding intensity) values are reported for all entries that follow.
Please reply with the number alone, leaving off any unit.

Examples with answers:
TEGPNFYVPFSNVTGVVR
0.2883
YVPFSNVTGVVRSPFEQP
0.1562
VNNESTHQGSNFMNGTEG
0.0717
FSNVTGVVRSPFEQPQYY
0.1147

Task: I am curious: what normalized (binding intensity) value has been reported for PEGMQCSCGIDYYTLKPE ?
Output: 0.4041

Task: I am curious: what normalized (binding intensity) value has been reported for PWQLHGYFVFGPTGCNLE ?
Output: 0.2667

Task: I am curious: what normalized (binding intensity) value has been reported for ESTHQGSNFMNGTEGPNF ?
Output: 0.07803

Task: I am curious: what normalized (binding intensity) value has been reported for RYIPEGMQCSCGIDYYTL ?
Output: 0.3268

Task: I am curious: what normalized (binding intensity) value has been reported for YTLKPEVNNESTHQGSNF ?
Output: 0.2121

Task: I am curious: what normalized (binding intensity) value has been reported for NLERYIPEGMQCSCGIDY ?
Output: 0.09639

###

- assayed.system: DR5L ECD (Homo sapiens)
- Construct: Gp67 (glycoprotein) signal peptide (N); made in house; host or cells: SF21 insect cells (baculovirus, Bac-to-Bac)
- Sequence (O14763 72-213): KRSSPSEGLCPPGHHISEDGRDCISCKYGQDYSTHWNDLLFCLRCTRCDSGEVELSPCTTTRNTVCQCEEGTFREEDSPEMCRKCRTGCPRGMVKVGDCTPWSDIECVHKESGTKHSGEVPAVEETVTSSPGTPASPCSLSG
- protocol.summary: Fluorescence quenching of AlexaFluor647-DR5L ECD
- Assay type: binding
- experimental.conditions: AlexaFluor647-DR5L ECD 200 nM; 20 mM HEPES pH 7.2, 100 mM KOAc, 0.1% Tween-20; 30 min RT; read at 25°C; N = 3, ± SD; read-out: K1/2 (half-maximum binding constant, apparent binding affinity)
No end group written: not given here.
measurement.label: pKd
Quick note: pKd values are minus log10 of concentrations in mol/L.

Task: I am curious: what pKd value has been reported for FTWRYQPEGGRDAISIFHYA [MPZ-ecto] ?
Output: 3.96

###

- System: DR5 ECD
- protocol.summary: Peptide array binding of Fc-tagged DR5 ectodomain (MPZ and RHO sequences; amino acid enrichment)
- Design: species or system human
- experimental.conditions: rhodopsin EL1-EL3 peptide array, min subtracted
Would you please tag the item MET when its Corrected rawintden - min is 900000 or above, and NOT MET when it is below?

Would you please look over these solved cases?
ESTHQGSNFMNGTEGPNF
NOT MET
PNFYVPFSNVTGVVRSPF
NOT MET
VTGVVRSPFEQPQYYLAE
NOT MET
TEGPNFYVPFSNVTGVVR
MET
SPFEQPQYYLAEPWQLHG
NOT MET
RYIPEGMQCSCGIDYYTL
MET

Task: Could you verify whether the entry FGPTGCNLERYIPEGMQC shows Corrected rawintden - min of no less than 900000?
Output: MET

Task: Could you verify whether the entry FSNVTGVVRSPFEQPQYY shows Corrected rawintden - min of no less than 900000?
Output: NOT MET

Task: Could you verify whether the entry KPEVNNESTHQGSNFMNG shows Corrected rawintden - min of no less than 900000?
Output: MET

Task: Could you verify whether the entry LHGYFVFGPTGCNLERYI shows Corrected rawintden - min of no less than 900000?
Output: MET

Task: Could you verify whether the entry NLERYIPEGMQCSCGIDY shows Corrected rawintden - min of no less than 900000?
Output: NOT MET

###

- Tested on: DR5 ECD
- protocol.summary: Peptide array binding of Fc-tagged DR5 ectodomain (MPZ and RHO sequences; amino acid enrichment)
- Design: species or system human
- experimental.conditions: rhodopsin EL1-EL3 peptide array, normalized from corrected rawintden - min
- Description: Peptide arrays were purchased from the MIT Biopolymers Laboratory as described previously in [Karagöz et al. (2017)] and [Gardner and Walter (2011)]. […] The membrane was imaged using chemi-luminescence with the Bio-Rad Universal Hood II Gel Doc below saturating pixel intensities. The signal of each spot was quantified using Max Quant and normalized to the maximum intensity of all the spots on the same array.
measurement.label: normalized (binding intensity)
Please reply with the number alone, leaving off any unit.

SNFMNGTEGPNFYVPFSN
0.08236

Task: I am curious: what normalized (binding intensity) value has been reported for MNGTEGPNFYVPFSNVTG ?
Output: 0.2016

Task: I am curious: what normalized (binding intensity) value has been reported for VTGVVRSPFEQPQYYLAE ?
Output: 0.09815

Task: I am curious: what normalized (binding intensity) value has been reported for HQGSNFMNGTEGPNFYVP ?
Output: 0.0878

Task: I am curious: what normalized (binding intensity) value has been reported for QYYLAEPWQLHGYFVFGP ?
Output: 0.2429

Task: I am curious: what normalized (binding intensity) value has been reported for KPEVNNESTHQGSNFMNG ?
Output: 0.2296

Task: I am curious: what normalized (binding intensity) value has been reported for FGPTGCNLERYIPEGMQC ?
Output: 0.3809

Task: I am curious: what normalized (binding intensity) value has been reported for VVRSPFEQPQYYLAEPWQ ?
Output: 0.09158

Task: I am curious: what normalized (binding intensity) value has been reported for LAEPWQLHGYFVFGPTGC ?
Output: 0.2172

Task: I am curious: what normalized (binding intensity) value has been reported for SCGIDYYTLKPEVNNEST ?
Output: 0.3629

Task: I am curious: what normalized (binding intensity) value has been reported for YFVFGPTGCNLERYIPEG ?
Output: 0.1196

###

- Test system: DR5 ECD
- protocol.summary: Peptide array binding of Fc-tagged DR5 ectodomain (MPZ and RHO sequences; amino acid enrichment)
- Design: species or system human
- experimental.conditions: rhodopsin EL1-EL3 peptide array, normalized from corrected rawintden - min
Would you please tag the item True when its normalized (binding intensity) is 0.3 or above, and False when it is below?

Would you please look over these solved cases?
EQPQYYLAEPWQLHGYFV
False
TGCNLERYIPEGMQCSCG
False
MQCSCGIDYYTLKPEVNN
True
LHGYFVFGPTGCNLERYI
False
IDYYTLKPEVNNESTHQG
True
PNFYVPFSNVTGVVRSPF
False

Next:
Task: Could you verify whether the entry SPFEQPQYYLAEPWQLHG shows normalized (binding intensity) of no less than 0.3?
Output: False
